Source of measurements: patent US20100197610A1

- procedure-summary: in vivo
- Set-up: species or system rats
- measurement-parameters: Sprague-Dawley, rat, po
value-type: concentration at 7 days (ng/mL)

compound	value-type	unit-symbol	reported-measurement
O=C(COP(=O)(O)O)[C@@H](O)[C@H](O)[C@H](O)COP(=O)(O)O [F1,6BP, Fructose-1,6-bisphosphate]	concentration at 7 days	ng/mL	22200
